ASSAY: Single dose PK in healthy subjects (Cohorts 1, 2, S1 and S2), plasma
Type: in vivo, human
CONDITION_DETAILS: human, plasma, intravenous, 134.4 mg; 6 hr; read-out: Plasma concentration, Q3
MEASUREMENT_KIND: concentration at 6 h (ng/mL)

{"COMPOUND": "COC(=O)N1CCC[C@H](NS(C)(=O)=O)[C@@H]1CO[C@H]1CC[C@@H](c2ccccc2)CC1 [Compound A]", "RESULT": 295}

---

ASSAY: Single dose PK in healthy subjects (Cohorts 1, 2, S1 and S2), plasma
Assay type: in vivo, human
CONDITION_DETAILS: human, plasma, intravenous, 28 mg; 6 hr; read-out: Plasma concentration, Q3
MEASUREMENT_KIND: concentration at 6 hr (ng/mL)

{"COMPOUND_SMILES": "COC(=O)N1CCC[C@H](NS(C)(=O)=O)[C@@H]1CO[C@H]1CC[C@@H](c2ccccc2)CC1", "RESULT": 48.8}

---

ASSAY: Single dose PK in healthy subjects (Cohorts 1, 2, S1 and S2), plasma
Type: in vivo, human
CONDITION_DETAILS: human, plasma, iv, 134.4 mg, 134.4 mg single IV infusion, healthy subjects; read-out: AUCinf Geo Mean

{"COMPOUND_SMILES": "COC(=O)N1CCC[C@H](NS(C)(=O)=O)[C@@H]1CO[C@H]1CC[C@@H](c2ccccc2)CC1", "AUC(0-inf)": "2680 ng·h/mL"}

---

ASSAY: Single dose PK in healthy subjects (Cohorts 1, 2, S1 and S2), plasma
Assay type: in vivo, human
CONDITION_DETAILS: human, plasma, iv, 134.4 mg, 134.4 mg single IV infusion, healthy subjects; read-out: AUClast Geo Mean
MEASUREMENT_KIND: AUC(0-t)

{"COMPOUND_SMILES": "COC(=O)N1CCC[C@H](NS(C)(=O)=O)[C@@H]1CO[C@H]1CC[C@@H](c2ccccc2)CC1", "RESULT": "2660 ng·h/mL"}

---

ASSAY: Single dose PK in healthy subjects (Cohorts 1, 2, S1 and S2), plasma
Type: in vivo, human
CONDITION_DETAILS: human, plasma, iv, 240 mg, 240 mg single IV infusion; 1.5 hr; read-out: Plasma Concentration of Cmpd A, Q3

{"COMPOUND_SMILES": "COC(=O)N1CCC[C@H](NS(C)(=O)=O)[C@@H]1CO[C@H]1CC[C@@H](c2ccccc2)CC1", "concentration at 1.5 hr, ng/mL": 463}

---

ASSAY: Single dose PK in healthy subjects (Cohorts 1, 2, S1 and S2), plasma
Format: in vivo, human
CONDITION_DETAILS: human, plasma, intravenous, 180 mg; 9 hr; read-out: Plasma concentration, Q1
MEASUREMENT_KIND: concentration at 9 hr (ng/mL)

{"COMPOUND": "COC(=O)N1CCC[C@H](NS(C)(=O)=O)[C@@H]1CO[C@H]1CC[C@@H](c2ccccc2)CC1 [Compound A]", "RESULT": 311}

---

ASSAY: Single dose PK in healthy subjects (Cohorts 1, 2, S1 and S2), plasma
Type: in vivo, human
CONDITION_DETAILS: human, plasma, intravenous, 7 mg; 4 hr; read-out: Plasma concentration, Mean
Text: […]

{"COMPOUND": "COC(=O)N1CCC[C@H](NS(C)(=O)=O)[C@@H]1CO[C@H]1CC[C@@H](c2ccccc2)CC1 [Compound A]", "concentration at 4 h / ng/mL": 15.9}
